Provenance of the data: PubChem BioAssay AID1159580

For each entry below, report its normalized growth value.
Protocol notes: chemical genetic growth profiling, strain panel (AID 1159580);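 further: tested at 20 µM; growth read once vehicle control cultures reached saturation at 30 °C; 1 = growth at the plate median or of vehicle wells; lower values mean less growth of the strain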
Condition info: S. cerevisiae deletion strains, growth OD, locus YLR342W, strain FKS1 (second series), stronger effect = lower value
About 2,000 (36%) of roughly 5,500 compounds were called active. Not shown: some 18% with an inconclusive outcome. The list shows a part of the results.
Numbers only.

Worked examples follow.
# Compound, Endpoint value
measured = [
    ("COc1ccc2c(c1OC)C(=O)O[C@@H]2[C@H]1c2cc3c(cc2CCN1C)OCO3", 1.06),
    ("COc1cc(O)c(C(=O)/C=C/c2ccccc2)c(OC)c1", 0.876),
    ("CC(=O)[C@H]1CCC2C3CCC4=CC(=O)CC[C@]4(C)C3CC[C@@]21C (some centres not stated)", 0.814),
    ("CC(=O)C1CCC2C3CC(=O)C4=CC(=O)CCC4(C)C3CCC12C (configuration not stated)", 1.01),
    ("CN[C@@H](C)[C@@H](O)c1ccccc1", 0.99),
]

Answer for every listed entry: what is its normalized growth? The entries follow.
1. CC(C)(O)[C@@H]1[C@H]2OC(=O)[C@@H]1[C@]1(O)C[C@H]3O[C@]34C(=O)O[C@H]2[C@]14C
2. CC(CCc1ccccc1)NC(C)C(O)c1ccc(O)cc1 (configuration not stated)
3. ClC1=C(Cl)C2(Cl)C3C4C=CC(C4)C3C1(Cl)C2(Cl)Cl (configuration not stated)
4. C[C@H]1OC(n2cc(F)c(=O)[nH]c2=O)C(O)[C@@H]1O (some centres not stated)
5. CCCCCCCCNC(C)C(O)c1ccc(SC(C)C)cc1 (configuration not stated)

Found:
1: 1.02; 2: 1.01; 3: 0.916; 4: 0.991; 5: 0.06
